For each record, write down the corresponding Kd.
target-entity: T1, Taf14ET (extra-terminal domain of Taf14, aa 168-243) (S. cerevisiae, UniProt P35189 168-243)
T1 construct: Taf14, S. cerevisiae, UniProt P35189, ET domain, aa 168-243; Uniformly 15N-labelled for NMR; also called ET domain of Taf14
T1 sequence (looked up): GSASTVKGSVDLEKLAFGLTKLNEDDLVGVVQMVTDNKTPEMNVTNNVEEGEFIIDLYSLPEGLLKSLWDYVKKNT
assay-summary: other fluorescence titration; tryptophan fluorescence, 25 °C; 1 μM Taf14ET or Taf14FL, increasing peptide; 50 mM Tris-HCl pH 6.8 or 7.5, 150 mM NaCl, 1 mM DTT or 0.2 mM TCEP; excitation 295 nm; apparent Kd, 1:1 stoichiometry
details: both partners purified
Reply with just the number (in µM).

Asked: Returns the measured Kd for the input binder. Input: Ac-EPKLLLKINLKK-NH2 (also called Yng1 peptide; source: synthetic peptide (Synpeptide)) [Yng1EBM peptide (aa 113-124 of Yng1), Ac-EPKLLLKINLKK-NH2]
Given back: 0.6

Asked: Cool, now Ac-SEELKVRIKYDS-NH2 (Sas3 (something about silencing 3), catalytic subunit of the yeast NuA3 complex, aa 111-122; also called Sas3 peptide; source: synthetic peptide (Synpeptide)) [Sas3EBM peptide (aa 111-122 of Sas3), Ac-SEELKVRIKYDS-NH2]
Given back: 18
